assay system: Core antigen (Hepatitis B virus) (UniProt Q03732)
Sequence (Q03732 as listed by the source): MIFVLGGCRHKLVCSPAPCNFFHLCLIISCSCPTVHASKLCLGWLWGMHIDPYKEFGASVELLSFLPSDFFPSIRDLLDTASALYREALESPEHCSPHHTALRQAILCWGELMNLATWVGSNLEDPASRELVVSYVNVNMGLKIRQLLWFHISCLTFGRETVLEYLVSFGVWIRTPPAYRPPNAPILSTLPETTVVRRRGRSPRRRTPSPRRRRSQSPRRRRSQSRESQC
method notes: Inhibition of capsid protein in Hepatitis B virus infected in human HepG2.2.15 cells assessed as reduction in viral DNA level supplemented with fresh medium containing compound every 2 days and measured after 6 days by RT-PCR analysis relative to control
Assay type: cell-based
Design: concentration or dose not given beside the values
condition details: concentration not given here
Please map values of inhibition to classes as shown: low class (below 30%), middle class (30% to below 60%), high class (60% or more)

> print(dat)
                                    compound  qualitative.label
 1  Nc1ccn([C@@H]2CS[C@H](CO)O2)c(=O)n1 [LAMIVUDINE]         high class
 2  COc1ccc(C(C)=O)cc1CSc1nc2ccc(O)cc2c(=O)n1Cc1cccs1          low class
 3  COc1ccccc1CSc1nc2ccc(Cl)cc2c(=O)n1Cc1cccs1         high class
 4  COc1ccccc1CSc1nc2ccc(C)cc2c(=O)n1Cc1cccs1         high class
 5  O=c1c2cc(Cl)ccc2nc(SCc2ccccc2)n1Cc1cccs1          low class
 6  COc1ccccc1CSc1nc2ccc(OCCN(C)C)cc2c(=O)n1Cc1cccs1       middle class
 7  COc1ccc(C(C)=O)cc1CSc1nc2ccc(I)cc2c(=O)n1Cc1cccs1       middle class
 8  COc1ccc(C(C)=O)cc1CSc1nc2ccc(OCCN(C)C)cc2c(=O)n1Cc1cccs1       middle class
 9  COc1ccc(C(C)=O)cc1CSc1nc2ccc(C)cc2c(=O)n1Cc1cccs1       middle class
10  COc1ccccc1CSc1nc2ccc(Br)cc2c(=O)n1Cc1cccs1         high class
11  CN(C)CCOc1ccc2nc(SCc3ccccc3)n(Cc3cccs3)c(=O)c2c1         high class
12  CCN(CC)CCOc1ccc2nc(SCc3ccccc3)n(Cc3cccs3)c(=O)c2c1         high class
13  CCN(CC)CCOc1ccc2nc(SCc3cc(C(C)=O)ccc3OC)n(Cc3cccs3)c(=O)c2c1       middle class
14  COc1ccccc1CSc1nc2ccc(O)cc2c(=O)n1Cc1cccs1          low class
15    COc1ccccc1CSc1nc2ccccc2c(=O)n1Cc1cccs1         high class
16  COc1ccc(C(C)=O)cc1CSc1nc2ccc(Cl)cc2c(=O)n1Cc1cccs1       middle class
17  CCN(CC)CCOc1ccc2nc(SCc3ccccc3OC)n(Cc3cccs3)c(=O)c2c1         high class
18  COc1ccc(C(C)=O)cc1CSc1nc2ccccc2c(=O)n1Cc1cccs1       middle class
19   O=c1c2cc(O)ccc2nc(SCc2ccccc2)n1Cc1cccs1          low class
20      O=c1c2ccccc2nc(SCc2ccccc2)n1Cc1cccs1          low class
21  Cc1ccc2nc(SCc3ccccc3)n(Cc3cccs3)c(=O)c2c1          low class
22  COc1ccc(C(C)=O)cc1CSc1nc2ccc(Br)cc2c(=O)n1Cc1cccs1       middle class
23  COc1ccccc1CSc1nc2ccc(F)cc2c(=O)n1Cc1cccs1         high class
24  O=c1c2cc(Br)ccc2nc(SCc2ccccc2)n1Cc1cccs1          low class
25   O=c1c2cc(F)ccc2nc(SCc2ccccc2)n1Cc1cccs1          low class
26   O=c1c2cc(I)ccc2nc(SCc2ccccc2)n1Cc1cccs1          low class
27  COc1ccccc1CSc1nc2ccc(I)cc2c(=O)n1Cc1cccs1         high class

The origin of these recorded values is ChEMBL document CHEMBL4350975.
